# target.of.assay: bovine vesicular acetylcholine transporter (VAChT) (Bos taurus, UniProt E1BK36)
# Sequence (E1BK36 1-524): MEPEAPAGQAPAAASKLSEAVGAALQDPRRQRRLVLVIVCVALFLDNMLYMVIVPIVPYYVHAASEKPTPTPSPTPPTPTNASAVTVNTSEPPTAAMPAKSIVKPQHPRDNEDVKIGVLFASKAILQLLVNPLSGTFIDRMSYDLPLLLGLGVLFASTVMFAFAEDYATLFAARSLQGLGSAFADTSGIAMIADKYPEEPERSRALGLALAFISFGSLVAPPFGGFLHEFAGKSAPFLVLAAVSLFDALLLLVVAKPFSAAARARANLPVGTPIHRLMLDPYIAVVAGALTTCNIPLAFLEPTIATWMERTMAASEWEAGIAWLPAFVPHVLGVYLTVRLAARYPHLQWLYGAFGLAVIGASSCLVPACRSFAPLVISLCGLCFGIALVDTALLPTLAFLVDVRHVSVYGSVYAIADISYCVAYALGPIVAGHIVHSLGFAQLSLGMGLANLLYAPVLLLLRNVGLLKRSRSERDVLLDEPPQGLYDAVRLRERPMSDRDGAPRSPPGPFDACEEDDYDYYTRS
# assay.name: Radioligand Binding Assay
# run.conditions: Bovine binding Ki, CHO-K1 membranes with recombinant bovine VAChT, [3H]Compound X6 0.3 nM
value.kind: Ki

Solved entries:
smiles.entry | Ki
O=C(NCc1ccnc(Cl)c1)N1CC2(CCN(C/C=C/c3ccc(OC(F)(F)F)cc3)CC2)c2ccc(C(F)(F)F)cc21 | 193 nM
O=C(NCc1ccnc(Cl)c1)N1CC2(CCN(C/C=C/c3ccc(C(F)(F)F)cn3)CC2)c2c1ccc1scnc21 | 428 nM
COc1ccc2ccc(CN3CCC4(CC3)CN(C(=O)NCc3ccnc(F)c3)c3ccc(C#N)cc34)c(C)c2n1 | 191 nM
O=C(NCc1ccnc(Cl)c1)N1CC2(CCN(C/C=C/c3ccc(Cl)c(Cl)c3)CC2)c2cc3c(cc21)OCCO3 | 62.8 nM
O=C(NCc1ccnc(Cl)c1)N1CC2(CCN(C/C=C/c3ccc(Cl)c(Cl)c3)CC2)c2c(Br)cccc21 | 144 nM
O=C(NCc1cscn1)N1CC2(CCN(C/C=C/c3ccc(Cl)c(Cl)c3)CC2)c2c1ccc1scnc21 | 1100 nM

IN: Identify measured Ki associated with `O=C(NCc1nccs1)N1CC2(CCN(C/C=C/c3ccc(Cl)c(Cl)c3)CC2)c2c1ccc1scnc21`
OUT: 205 nM

IN: Read the entry `O=C(NCc1ccc(O)cc1)N1CC2(CCN(C/C=C/c3ccc(Cl)c(Cl)c3)CC2)c2c1ccc1scnc21` and write its reported Ki.
OUT: 2220 nM

IN: Give recorded Ki. `O=C(NCc1ccnc(Cl)c1)N1CC2(CCN(C/C=C/c3ccc(Cl)cc3)CC2)c2cc(F)c(C(F)(F)F)cc21`
OUT: 33 nM

IN: Please list Ki recorded for the compound `O=C(NCc1ccnc(F)c1)N1CC2(CCN(C/C=C/c3ccc(F)cc3)CC2)c2ccc(C(F)(F)F)cc21`
OUT: 65.2 nM

IN: Look up and report measured Ki for this entry: `O=C(NCc1ncccn1)N1CC2(CCN(C/C=C/c3ccc(Cl)c(Cl)c3)CC2)c2c1ccc1scnc21`
OUT: 721 nM

IN: Tell me Ki reported for `N#Cc1ccc(/C=C/CN2CCC3(CC2)CN(C(=O)NCc2ccnc(Cl)c2)c2cc(-c4ccccc4C(F)(F)F)ccc23)cc1`
OUT: 25.4 nM

IN: Using the record for `O=C(NCc1cnc(Cl)s1)N1CC2(CCN(C/C=C/c3ccc(Cl)cc3)CC2)c2c(OC(F)(F)F)ccc(Cl)c21` , state its measured Ki.
OUT: 954 nM

IN: State its Ki for this compound: `O=C(NCc1ccnc(Cl)c1)N1CC2(CCN(C/C=C/c3ccc(Cl)c(Cl)c3)CC2)c2cc3c(cc21)CCC3`
OUT: 56.3 nM

---

# target.of.assay: bovine vesicular acetylcholine transporter (VAChT) (Bos taurus, UniProt E1BK36)
# assay.name: Radioligand Binding Assay
# run.conditions: Bovine binding Ki, CHO-K1 membranes with recombinant bovine VAChT, [3H]Compound X6 0.3 nM
value.kind: log10(Ki) (log10 of the value in nM)
Field: value | Transform: log10 | Quantity: Ki | Unit: nM

Worked set:
smiles.entry | log10(Ki)
O=C(NCc1ccnc(Cl)c1)N1CC2(CCN(C/C=C/c3ccc(C(F)(F)F)cn3)CC2)c2cc(OC(F)(F)F)ccc21 | 3.17
O=C(NCc1ccnc(F)c1)N1CC2(CCN(C/C=C/c3ccc(Cl)cc3)CC2)c2c1ccc(F)c2Cl | 2.26
O=C(NCc1ccnc(Cl)c1)N1CC2(CCN(C/C=C/c3ccc(Cl)cc3)CC2)c2c1ccc1scnc21 | 1.95

IN: Fill in: log10(Ki) on bovine vesicular acetylcholine transporter (VAChT) (Bos taurus, UniProt E1BK36), entry `O=C(NCc1ccnc(Cl)c1)N1CC2(CCN(C/C=C/c3ccc(Cl)c(Cl)c3)CC2)c2c(Cl)cccc21`
OUT: 2.26

IN: Find the measured log10(Ki) of `N#Cc1ccc(/C=C/CN2CCC3(CC2)CN(C(=O)NCc2ccnc(C(F)(F)F)c2)c2ccc(OC(F)(F)F)cc23)cc1` with bovine vesicular acetylcholine transporter (VAChT) (Bos taurus, UniProt E1BK36) as test system.
OUT: 2.46

IN: Lab note: bovine vesicular acetylcholine transporter (VAChT) (Bos taurus, UniProt E1BK36) assay, enter log10(Ki) for `O=C(NCc1ccnc(Cl)c1)N1CC2(CCN(C/C=C/c3ccc(Cl)cc3)CC2)c2cc(S(F)(F)(F)(F)F)ccc21` here
OUT: 2.67

IN: For bovine vesicular acetylcholine transporter (VAChT) (Bos taurus, UniProt E1BK36), give the measured log10(Ki) of the entry `O=C(NCc1ccnc(Cl)c1)N1CC2(CCN(C/C=C/c3ccc(OC(F)(F)F)cc3)CC2)c2cc(OC(F)(F)F)ccc21`
OUT: 2.64

IN: Report value: log10(Ki), system: bovine vesicular acetylcholine transporter (VAChT) (Bos taurus, UniProt E1BK36), compound: `O=C(NCc1ccnc(F)c1)N1CC2(CCN(C/C=C/c3ccc(Cl)c(Cl)c3)CC2)c2cc(-c3cncnc3)ccc21`
OUT: 3.52

IN: Give log10(Ki) only, for `O=C(NCc1ccnc(F)c1)N1CC2(CCN(C/C=C/c3ccc(Cl)cc3)CC2)c2cc(Cl)c(F)cc21` , using bovine vesicular acetylcholine transporter (VAChT) (Bos taurus, UniProt E1BK36) data.
OUT: 1.50

IN: Give reported log10(Ki) for `O=C(NCc1ccnc(Cl)c1)N1CC2(CCN(C/C=C/c3ccc(F)cc3)CC2)c2c(OC(F)(F)F)cccc21` (bovine vesicular acetylcholine transporter (VAChT) (Bos taurus, UniProt E1BK36))
OUT: 3.18

IN: Report log10(Ki) under test system bovine vesicular acetylcholine transporter (VAChT) (Bos taurus, UniProt E1BK36) for `COc1ccc2c(c1)C1(CCN(C/C=C/c3ccc(Cl)c(Cl)c3)CC1)CN2C(=O)NCc1ccnc(Cl)c1` .
OUT: 2.26

IN: Enter measured log10(Ki), system bovine vesicular acetylcholine transporter (VAChT) (Bos taurus, UniProt E1BK36), for the compound shown: `COc1ccc(/C=C/CN2CCC3(CC2)CN(C(=O)NCc2ccnc(Cl)c2)c2ccc4c(cnn4C)c23)cc1`
OUT: 3.15

IN: Recall the reported log10(Ki) of `Cc1cccc2c1C1(CCN(C/C=C/c3ccc(Cl)c(Cl)c3)CC1)CN2C(=O)NCc1ccnc(F)c1` when tested on bovine vesicular acetylcholine transporter (VAChT) (Bos taurus, UniProt E1BK36).
OUT: 2.38

IN: Given `O=C(NCc1ccnc(F)c1)N1CC2(CCN(C/C=C/c3ccc(Cl)cc3)CC2)c2cc(OC(F)(F)F)ccc21` , report its log10(Ki) on bovine vesicular acetylcholine transporter (VAChT) (Bos taurus, UniProt E1BK36).
OUT: 2.94

---

# target.of.assay: bovine vesicular acetylcholine transporter (VAChT) (Bos taurus, UniProt E1BK36)
# assay.name: Radioligand Binding Assay
# run.conditions: Bovine binding Ki, CHO-K1 membranes with recombinant bovine VAChT, [3H]Compound X6 0.3 nM
Reported pKi values for the following molecules.
The value called pKi is obtained by taking minus log10 of the concentration in mol/L.

Solved cases (2 shown):
smiles.entry | target.of.assay | pKi
O=C(NCc1ccnc(Cl)c1)N1CC2(CCN(C/C=C/c3ccc(C(F)(F)F)cn3)CC2)c2cc(C(F)(F)F)ccc21 | bovine vesicular acetylcholine transporter (VAChT) (Bos taurus, UniProt E1BK36) | 6.29
COc1nc2ccccc2cc1CN1CCC2(CC1)CN(C(=O)NCc1ccnc(Cl)c1)c1ccc(Cl)cc12 | bovine vesicular acetylcholine transporter (VAChT) (Bos taurus, UniProt E1BK36) | 7.46

IN: For bovine vesicular acetylcholine transporter (VAChT) (Bos taurus, UniProt E1BK36), give the measured pKi of the entry `O=C(NCc1ccnc(Cl)c1)N1CC2(CCN(C/C=C/c3ccc(C(F)(F)F)cc3)CC2)c2cc(C(F)(F)F)ccc21`
OUT: 6.15

Cited source for all entries: patent US20160296499A1
